assay: microPET/CT imaging, ROI analysis, HT1080-FAP tumor models; format: in vivo, mice; conditions: nude (thymus-free), mouse, kidney, intravenous, 3 MBq; HT1080-FAP models, without blocking; read-out: kidney accumulation (ROI analysis)
recorded-metric: tissue uptake (%ID/g)
# output: bare number, implied unit %ID/g

Could you tell me which tissue uptake is on file for CCCCCC(=O)N[C@H]1CSCc2cc(CSCCNC(=O)[C@H](CCCCN)NC(=O)[C@@H](NC(=O)[C@H](CCSC)NC(=O)CN3CCN(CC(=O)O)CCN(CC(=O)O)CCN(CC(=O)O)CC3)C(C)C)cc(c2)CSC[C@@H](C(=O)O)NC(=O)[C@H](Cc2ccccc2)NC(=O)[C@H](CCC(N)=O)NC(=O)[C@H]([C@@H](C)O)NC(=O)[C@@H]2CCCN2C(=O)[C@@H]2CCCN2C1=O [[^68Ga]Ga-DOTA-FD1, metal not drawn] ?
40.6

---

assay: microPET/CT imaging, ROI analysis, HT1080-FAP tumor models; type: in vivo, mice; conditions: nude (thymus-free), mouse, intravenous, 3 MBq; HT1080-FAP tumor, 2 h
recorded-metric: tissue uptake at 2 h (%ID/g)
# output: bare number, implied unit %ID/g

Could you tell me which tissue uptake at 2 h is on file for CCCCCC(=O)N[C@H]1CSCc2cc(CSCCNC(=O)[C@H](CCCCNC(=O)CCCc3ccc(I)cc3)NC(=O)CN3CCN(CC(=O)O)CCN(CC(=O)O)CCN(CC(=O)O)CC3)cc(c2)CSC[C@@H](C(=O)O)NC(=O)[C@H](Cc2ccccc2)NC(=O)[C@H](CCC(N)=O)NC(=O)[C@H]([C@@H](C)O)NC(=O)[C@@H]2CCCN2C(=O)[C@@H]2CCCN2C1=O [[^68Ga]Ga-DOTA-FD2, metal not drawn] ?
8.23

---

Test: microPET/CT imaging, ROI analysis, HT-1080 tumor models
Type: in vivo, mice
Settings: nude (thymus-free), mouse, intravenous, 3 MBq, 4 h p.i.
Experimental: A human pancreatic cancer cell line BxPC-3 and a murine pancreatic cancer cell Panc-02 were obtained from the American Type Culture Collection. The pancreatic cancer cell line T3M-4 was purchased by MeisenCTCC (Zhejiang, China). BxPC-3 and T3M-4 cell lines were grown in RPMI 1640 medium (Shanghai BasalMedia Technologies Co., LTD.) containing 10% FBS (GE Healthcare, Chicago, IL, USA) and 1% penicillin–streptomycin solution (Invitrogen). […]
recorded-metric: tissue uptake at 4 h (%ID/g)
# output: bare number, implied unit %ID/g

# molecule, recorded-metric, number
data = [
    ("CCCCCC(=O)N[C@H]1CSCc2cc(CSCCNC(=O)[C@H](CCCCNC(=O)CCCc3ccc(I)cc3)NC(=O)CN3CCN(CC(=O)O)CCN(CC(=O)O)CCN(CC(=O)O)CC3)cc(c2)CSC[C@@H](C(=O)O)NC(=O)[C@H](Cc2ccccc2)NC(=O)[C@H](CCC(N)=O)NC(=O)[C@H]([C@@H](C)O)NC(=O)[C@@H]2CCCN2C(=O)[C@@H]2CCCN2C1=O [[^68Ga]Ga-DOTA-FD2, metal not drawn]", "tissue uptake at 4 h", 8.1),
]

Could you tell me which tissue uptake at 4 h is on file for CCCCCC(=O)N[C@H]1CSCc2cc(CSCCNC(=O)[C@H](CCCCNC(=O)CCCc3ccc(I)cc3)NC(=O)[C@@H](NC(=O)[C@H](CCSC)NC(=O)CN3CCN(CC(=O)O)CCN(CC(=O)O)CCN(CC(=O)O)CC3)C(C)C)cc(c2)CSC[C@@H](C(=O)O)NC(=O)[C@H](Cc2ccccc2)NC(=O)[C@H](CCC(N)=O)NC(=O)[C@H]([C@@H](C)O)NC(=O)[C@@H]2CCCN2C(=O)[C@@H]2CCCN2C1=O [[^68Ga]Ga-DOTA-FD3, metal not drawn] ?
9.97

---

assay: Ex vivo biodistribution after imaging, HT1080-FAP tumor models; format: in vivo, mice; settings: nude (thymus-free), mouse, intravenous, 3 MBq, total radioactivity; HT1080-FAP tumor, 4.5 h p.i.
recorded-metric: tissue uptake at 4.5 h

Could you tell me which tissue uptake at 4.5 h is on file for CCCCCC(=O)N[C@H]1CSCc2cc(CSCCNC(=O)[C@H](CCCCNC(=O)CCCc3ccc(I)cc3)NC(=O)CN3CCN(CC(=O)O)CCN(CC(=O)O)CCN(CC(=O)O)CC3)cc(c2)CSC[C@@H](C(=O)O)NC(=O)[C@H](Cc2ccccc2)NC(=O)[C@H](CCC(N)=O)NC(=O)[C@H]([C@@H](C)O)NC(=O)[C@@H]2CCCN2C(=O)[C@@H]2CCCN2C1=O [[^68Ga]Ga-DOTA-FD2, metal not drawn] ?
11.9 %ID/g

---

Experiment: Ex vivo biodistribution after imaging, HT-1080 tumor models
Assay type: in vivo, mice
Conditions: nude (thymus-free), mouse, intravenous, 3 MBq, total radioactivity, 4.5 h p.i.
Procedure: A human pancreatic cancer cell line BxPC-3 and a murine pancreatic cancer cell Panc-02 were obtained from the American Type Culture Collection. The pancreatic cancer cell line T3M-4 was purchased by MeisenCTCC (Zhejiang, China). BxPC-3 and T3M-4 cell lines were grown in RPMI 1640 medium (Shanghai BasalMedia Technologies Co., LTD.) containing 10% FBS (GE Healthcare, Chicago, IL, USA) and 1% penicillin–streptomycin solution (Invitrogen). […]
recorded-metric: tissue uptake at 4.5 h (%ID/g)
# output: bare number, implied unit %ID/g

Could you tell me which tissue uptake at 4.5 h is on file for CCCCCC(=O)N[C@H]1CSCc2cc(CSCCNC(=O)[C@H](CCCCNC(=O)CCCc3ccc(I)cc3)NC(=O)CN3CCN(CC(=O)O)CCN(CC(=O)O)CCN(CC(=O)O)CC3)cc(c2)CSC[C@@H](C(=O)O)NC(=O)[C@H](Cc2ccccc2)NC(=O)[C@H](CCC(N)=O)NC(=O)[C@H]([C@@H](C)O)NC(=O)[C@@H]2CCCN2C(=O)[C@@H]2CCCN2C1=O [[^68Ga]Ga-DOTA-FD2, metal not drawn] ?
10.4

---

test: Ex vivo biodistribution after imaging, HT1080-FAP tumor models; format: in vivo, mice; settings: nude (thymus-free), mouse, kidney, intravenous, 750 ug, total radioactivity; HT1080-FAP models, co-injected excess unlabeled FD1 (750 μg); read-out: kidney accumulation (biodistribution analysis) upon FD1 blocking
recorded-metric: tissue uptake
Show the value, then the unit it is measured in.

Could you tell me which tissue uptake is on file for CCCCCC(=O)N[C@H]1CSCc2cc(CSCCNC(=O)[C@H](CCCCN)NC(=O)[C@@H](NC(=O)[C@H](CCSC)NC(=O)CN3CCN(CC(=O)O)CCN(CC(=O)O)CCN(CC(=O)O)CC3)C(C)C)cc(c2)CSC[C@@H](C(=O)O)NC(=O)[C@H](Cc2ccccc2)NC(=O)[C@H](CCC(N)=O)NC(=O)[C@H]([C@@H](C)O)NC(=O)[C@@H]2CCCN2C(=O)[C@@H]2CCCN2C1=O [[^68Ga]Ga-DOTA-FD1, metal not drawn] ?
30.3 %ID/g

---

test: Ex vivo biodistribution after imaging, HT1080-FAP tumor models; assay type: in vivo, mice; conditions: nude (thymus-free), mouse, intravenous, 750 ug, total radioactivity; HT1080-FAP tumor, co-injected excess unlabeled FD1 (750 μg); read-out: tumor uptake (biodistribution) upon FD1 blocking
recorded-metric: tissue uptake (%ID/g)
# output: bare number, implied unit %ID/g

Could you tell me which tissue uptake is on file for CCCCCC(=O)N[C@H]1CSCc2cc(CSCCNC(=O)[C@H](CCCCN)NC(=O)[C@@H](NC(=O)[C@H](CCSC)NC(=O)CN3CCN(CC(=O)O)CCN(CC(=O)O)CCN(CC(=O)O)CC3)C(C)C)cc(c2)CSC[C@@H](C(=O)O)NC(=O)[C@H](Cc2ccccc2)NC(=O)[C@H](CCC(N)=O)NC(=O)[C@H]([C@@H](C)O)NC(=O)[C@@H]2CCCN2C(=O)[C@@H]2CCCN2C1=O [[^68Ga]Ga-DOTA-FD1, metal not drawn] ?
2.15

---

assay: Ex vivo biodistribution of [177Lu]Lu-DOTA-FD3 in HT1080-FAP tumor models; set-up: species or system mice; conditions: nude (thymus-free), mouse, 1.11 MBq, total radioactivity, 45 h, read-out: tumor uptake (biodistribution)
recorded-metric: tissue uptake at 45 h (%ID/g)
# output: bare number, implied unit %ID/g

Could you tell me which tissue uptake at 45 h is on file for CCCCCC(=O)N[C@H]1CSCc2cc(CSCCNC(=O)[C@H](CCCCNC(=O)CCCc3ccc(I)cc3)NC(=O)[C@@H](NC(=O)[C@H](CCSC)NC(=O)CN3CCN(CC(=O)O)CCN(CC(=O)O)CCN(CC(=O)O)CC3)C(C)C)cc(c2)CSC[C@@H](C(=O)O)NC(=O)[C@H](Cc2ccccc2)NC(=O)[C@H](CCC(N)=O)NC(=O)[C@H]([C@@H](C)O)NC(=O)[C@@H]2CCCN2C(=O)[C@@H]2CCCN2C1=O [[^177Lu]Lu-DOTA-FD3, metal not drawn] ?
10.5
